assay: compound binding in COS7 lysate, probe aLAP1, primary screen, cell lysate, small-molecule microarray (AID 1124); conditions: probe aLAP1, fluorescence, higher = more signal;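 note: lysate comes from COS7 cells expressing LAP1 and is applied at 0.3 µg/mL; score merges spot fluorescence near 667 nm with signal-to-noise over triplicate slides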
Readout label: composite z-score
In your answer, state the number alone without any accompanying words.

Solved entries (count: 6):
Compound	composite z-score
CN(C)CCCNC(=O)[C@@H]1c2ccccc2C(=O)N(C2Cc3ccccc3C2)[C@H]1c1ccc(CO)cc1	0.682
COC(=O)[C@@]1(Cc2ccc(OC)cc2)[C@H]2c3cc(C(=O)N(C)C)n(Cc4ccsc4Br)c3C[C@H]2CN1C(=O)c1ccccc1	0.107
CN(C)CCCCNC(=O)[C@H]1C[C@H]2C(=O)N[C@@H](Cc3ccccc3)C(=O)N2[C@H]1c1cccc(OCCO)c1	-0.507
CCN(CC)c1ccc(N2CC=CC34O[C@@H]5C=CCOC(=O)[C@@H]5[C@H]3C(=O)N(CCCO)[C@@H]4C2=O)cc1 (stereo partly drawn)	-0.39
O=C1C2C=CC(C(O)c3cccc(O)c3)N(Nc3ccccc3F)C2C(=O)N1c1ccccc1 (stereo not drawn)	-0.841
CCOC(=O)C1=C[C@@H](C(C)(C)C)N(S(=O)(=O)c2ccc(C)cc2)[C@H]1c1ccccc1Cl	0.472

Look up composite z-score for this compound: C=CCC(OC(C)=O)[C@@H]1[C@@H](N(Cc2cc3ccccc3o2)C(=O)Cc2ccc(OC)cc2)c2cc(OCCCO)ccc2N1C(=O)Cc1ccc(OC)cc1 (stereo partly drawn)
0.107

Look up composite z-score for this compound: `COCCOC(=O)N1C(=O)[C@@]2(c3cc(C#CCCO)ccc31)[C@H](C(=O)N1CCc3cc(OC)c(OC)cc3C1)[C@H]1C(=O)O[C@H](c3ccccc3)[C@H](c3ccccc3)N1[C@@H]2c1ccccc1OCCO`
1.01

Look up composite z-score for this compound: `CCCCC(=C=CC[C@@H](O)c1cccc(OCCO)c1)C[C@@H](O)COCc1ccccc1`
0.117

Look up composite z-score for this compound: `COCCOC(=O)N1C(=O)[C@@]2(c3cc(C#CCC(C(=O)OC)C(=O)OC)ccc31)[C@H](C(=O)N1CCCCCCC1)[C@H]1C(=O)O[C@H](c3ccccc3)[C@H](c3ccccc3)N1[C@@H]2c1ccccc1OCCO`
1.16

###

assay: PSAC antagonists in infected red cells, primary screen, cell-based, P. falciparum Indochina, OD700, 2 h (AID 1155);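 note: lysis reports solute entry through the parasite surface anion channel PSAC; channel blockers reduce lysis of infected cells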; conditions: P. falciparum Indochina infected erythrocytes, osmotic lysis OD700, called active from +8 up or from −8 down
Activity calls are given as the source filed them.
API: response.call in active, inactive

Worked cases, answers included:
Compound	Assigned category
C=CCC(OC(C)=O)[C@@H]1[C@@H](N(Cc2cccc3ccccc23)C(=O)c2ccc(C)cc2)c2cc(OCCCO)ccc2N1C(=O)c1ccc2ccccc2n1 (stereo not given in full)	inactive
CC(C)(C)N1CC=CC23O[C@@H]4/C=C\CCCOC(=O)C4[C@H]2C(=O)N(CCCCCCO)[C@@H]3C1=O (stereo not given in full)	inactive
CCCC[C@H]1OB(O)C[C@H]2C1=C(C)C[C@H]1C(=O)C=CC(=O)[C@H]12	inactive
O=C1O[C@H](c2ccccc2)[C@H](c2ccccc2)N2[C@H]1[C@@H](C(=O)N1CCN(c3ncccn3)CC1)[C@]1(C(=O)Nc3ccccc31)[C@H]2c1ccc(O)cc1	inactive
CCOC(=O)C1=CC[C@@H](c2ccccc2)N(S(=O)(=O)C[Si](C)(C)C)[C@H]1c1ccccc1	inactive
COc1ccc(NC(=O)O[C@H]2[C@H](OC(=O)Nc3ccc4c(c3)OCO4)[C@H](OC(=O)Nc3ccc4c(c3)OCO4)[C@@H](OC)O[C@@H]2CO)cc1	inactive
CN(C)CCCCNC(=O)[C@H]1C[C@H]2C(=O)NCC(=O)N2[C@H]1c1cccc(OCCO)c1	inactive
C[N+](C)(C)CCCCCCNC(=O)[C@@H]1C[C@@H]2C(=O)N[C@@H](Cc3ccccc3)C(=O)N2[C@@H]1c1ccc(O)cc1	inactive
C=CCC(OC(C)=O)[C@@H]1[C@@H](N(Cc2ccc(-c3cccc(C(F)(F)F)c3)o2)C(=O)c2cccc3ccccc23)c2cc(OCCCO)ccc2N1C(=O)c1ccc2ccccc2n1 (stereo not given in full)	inactive
CCCCC(=C=CC[C@@H](O)c1cccc(OCCO)c1)C[C@@H](O)COCc1ccccc1	inactive

I would be grateful if you could indicate the recorded call for `C#CCN=C(N)N` .
inactive

I would be grateful if you could indicate the recorded call for `CN(C)C(=O)[C@]1(Cc2ccccc2)N=C(c2ccc(OCCCO)cc2)O[C@@H]1c1ccccc1` .
active

I would be grateful if you could indicate the recorded call for `COC(=O)[C@@]1(Cc2ccccc2)[C@H]2c3cc(C(=O)N4CCCC4)n(Cc4ccc(C(F)(F)F)nc4)c3C[C@H]2CN1C(=O)c1ccccc1` .
inactive

I would be grateful if you could indicate the recorded call for CCC(CC)C(O)C1C=CC2C(=O)N(C)C(=O)C2N1N1CCCCC1 (stereo not given) .
inactive

I would be grateful if you could indicate the recorded call for COC(=O)C1=CC(CCCO)=CC(c2ccc(CN3CCCC3)cc2)N(Cc2sc3ccccc3c2Cl)C=C1C(=O)OC (stereo not given) .
inactive

###

target: NADPH oxidase 5 (Homo sapiens) (UniProt Q96PH1); assay: NOX5-dependent H2O2 signal modulators, primary screen, NOX inhibitor project, cell-based, HEK293-NOX5, Amplex Red fluorescence (AID 1161); settings: HEK293-NOX5, ionomycin, 45 min, higher = more signal
Sequence (Q96PH1 whole entry, looked up): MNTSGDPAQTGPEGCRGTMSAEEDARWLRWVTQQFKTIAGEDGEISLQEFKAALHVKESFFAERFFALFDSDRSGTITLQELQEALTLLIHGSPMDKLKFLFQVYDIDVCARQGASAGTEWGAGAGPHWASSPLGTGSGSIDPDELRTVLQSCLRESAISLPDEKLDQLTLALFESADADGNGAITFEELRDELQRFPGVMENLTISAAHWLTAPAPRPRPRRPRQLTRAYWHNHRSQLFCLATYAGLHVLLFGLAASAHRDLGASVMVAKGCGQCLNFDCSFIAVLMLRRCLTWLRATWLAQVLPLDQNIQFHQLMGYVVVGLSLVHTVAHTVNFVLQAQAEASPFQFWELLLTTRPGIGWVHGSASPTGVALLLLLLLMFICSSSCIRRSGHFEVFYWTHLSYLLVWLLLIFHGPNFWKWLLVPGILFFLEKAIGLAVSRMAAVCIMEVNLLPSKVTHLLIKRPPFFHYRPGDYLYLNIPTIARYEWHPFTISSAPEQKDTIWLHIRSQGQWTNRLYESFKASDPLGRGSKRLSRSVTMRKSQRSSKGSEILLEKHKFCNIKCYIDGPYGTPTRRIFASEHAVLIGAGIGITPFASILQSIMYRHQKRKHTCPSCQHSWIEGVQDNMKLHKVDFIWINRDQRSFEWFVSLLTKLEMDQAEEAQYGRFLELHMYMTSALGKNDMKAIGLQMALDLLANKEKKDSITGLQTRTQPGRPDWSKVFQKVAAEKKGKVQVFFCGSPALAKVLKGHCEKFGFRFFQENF
Readout label: z-score

Look up z-score for this compound: CCC(CC)C(O)C1C=CC2C(=O)N(C)C(=O)C2N1N1CCCCC1 (configuration not stated)
-1.35

Look up z-score for this compound: CN1C=C(C(=O)OCCS(C)(=O)=O)C(C(=O)OCCS(C)(=O)=O)=CC(CCCO)=CC1c1ccc(CN2CCCC2)cc1 (configuration not stated)
-1.65

Look up z-score for this compound: CC(C)N1CC=CC23O[C@@H]4C=CCCOC(=O)C4[C@H]2C(=O)N(CCCCCO)[C@@H]3C1=O (some centres not stated)
1.48

Look up z-score for this compound: `COCCOC(=O)N1C(=O)[C@@]2(c3ccccc31)[C@H](C(=O)N1CCCCCCC1)[C@H]1C(=O)O[C@H](c3ccccc3)[C@H](c3ccccc3)N1[C@@H]2c1ccc(O)cc1`
-4

Look up z-score for this compound: C=CCC(OC(C)=O)[C@@H]1[C@@H](N(Cc2ccc(-c3cccc(C(F)(F)F)c3)o2)C(=O)Cc2ccc(F)cc2)c2cc(OCCCO)ccc2N1C(=O)c1ccc2ccccc2c1 (some centres not stated)
0.0399

Look up z-score for this compound: CC1CC/C=C\[C@H]2OC34C=CCN(c5ccc(Cl)cc5)C(=O)[C@H]3N(CCCO)C(=O)[C@]4(C)C2C(=O)O1 (some centres not stated)
2.34

Look up z-score for this compound: `COc1ccc([Si](C)(C)[C@H]2[C@H](CCn3cc([C@H](O)c4ccccc4)nn3)O[C@@]3(C(=O)N(c4ccccc4)c4ccccc43)[C@@H]2C)cc1`
1.33

###

experiment: basal MM1S mitochondrial membrane potential changes, profiling panel, cell-based, JC-1 fluorescence, 24 h, 100 nL compound (AID 1170); conditions: higher = more signal; note: test concentration not given here
z-score values, listed per item
In your answer, state the number alone without any accompanying words.

Solved entries (count: 8):
Compound	z-score
CC(C)C[C@@H]1NC(=O)C([C@@H](C)OCc2ccccc2)NC(=O)[C@@]23C(=O)N[C@@H](Cc4ccccc4)C2[C@H](C)[C@@]2(C)O[C@H]2C3/C=C/CC/C=C/CNC1=O (stereo not given in full)	-0.638
COc1ccc([Si](C)(C)[C@H]2[C@H](CCO)O[C@@]3(C(=O)N(Cc4ccccc4)c4ccc(N(C=O)c5ccccc5)cc43)[C@@H]2C)cc1	-1.27
CC(C)(C)OC(=O)CC[C@]1(C(=O)N2CCOCC2)N=C(c2ccc(OCCCO)cc2)O[C@H]1c1ccccc1CN=[N+]=[N-]	-0.324
CCCCC(=C=CC[C@H](O)c1ccc(OCCO)cc1)C[C@H](O)c1ccccn1	-0.603
C[N+](C)(C)CCCC[C@@H]1NC(=O)[C@H]2C[C@@H](C(=O)NCCCCCNC(=O)CS)[C@@H](c3ccc(O)cc3)N2C1=O	-0.013
CC(C)CNC(=O)[C@@H]1c2ccccc2C(=O)N(Cc2ccccc2Cl)[C@H]1c1ccc(CO)cc1	0.438
C=CCOC(=O)[C@@H]1[C@H]2C(=O)O[C@H](c3ccccc3)[C@H](c3ccccc3)N2[C@H](c2ccc(OCCOC(=O)[C@H]3C[C@H]4C(=O)NCC(=O)N4[C@H]3c3ccc(O)cc3)cc2)[C@@]12C(=O)Nc1ccc(I)cc12	-1
COc1ccc(C#Cc2ccc3c(c2)[C@]2(C(=O)N3)[C@H](c3ccc(OCCO)cc3)N3[C@H](c4ccccc4)[C@H](c4ccccc4)OC(=O)[C@H]3[C@@H]2C(=O)O)cc1	-1.99

Look up z-score for this compound: `CCCC[C@@H](O)C1=C(COC)Cn2c(=O)n(-c3ccccc3)c(=O)n2[C@H]1CO`
0.794

Look up z-score for this compound: CC(=O)c1ccc(C(O)C2C=CC3C(=O)N(C)C(=O)C3N2NC(=O)OC(C)(C)C)cc1 (stereo not given)
0.485

Look up z-score for this compound: `NCCCC[C@@H]1NC(=O)[C@H]2C[C@@H](C(=O)O)[C@@H](c3cccc(OCCO)c3)N2C1=O`
-0.658

Look up z-score for this compound: `COC(=O)[C@@]1(Cc2ccc(OC)cc2)[C@@H]2[C@@H](CC(=O)[C@H]2CC(=O)C(=O)N2CCCC2)CN1C(=O)c1ccccc1`
-0.787

Look up z-score for this compound: `CN(C)CCCCNC(=O)[C@H]1C[C@H]2C(=O)NCC(=O)N2[C@H]1c1cccc(OCCO)c1`
-0.348

Look up z-score for this compound: Cc1ccccc1C(O)C1C=CC2C(=O)N(c3ccccc3)C(=O)C2N1Nc1ccccc1F (stereo not given)
0.368

Look up z-score for this compound: `CC(=O)NCCCC[C@@H]1NC(=O)[C@@H]2C[C@H](C(=O)NCCCCCC[N+](C)(C)C)[C@H](c3ccc(O)cc3)N2C1=O`
-0.5
